target desc: T1, cynomolgus TNFR2 on cells (cynomolgus)
T1 construct: whole, on cells; also called cynomolgus TNFR2 on CD4+ and CD8+ T cells
protocol notes: flow cytometry on cynomolgus PBMC, antibody at 10 ug/mL, anti-human Fc-PE secondary

binder	quantity unit	% CD8^+ ab^+ Donor 1
chimeric SBT-003 (antibody, V domains shown, also called chSBT-003) VH: QIQLVQSGPELKKPGETVKISCKASGYTFTDYSMHWVKQAPGKGLKWMGWINTETGEPTYADDFKGRFAFSSETSTSTAYLQINNLKNDDTTTYFCATYYGSSYVPDYWGQGTSLTVSS VL: DIVMTQSHKFMSTSVGDRVSITCKASQNVGTAVAWYQHKPGQSPKLLIYWTSSRHTGVPDRFTGSGSGTEFTLTISNVQSEDLADYFCHQYSDYPYTFGGGTKLEIK	%	0.6
chimeric SBT-002 (antibody, V domains shown, also called chSBT-002) VH: QVTLKESGPGILQPSQTLSLTCSFSGFSLSTSGMGVGWIRQPSGKGLEWLAHIWWDDDKFYNPSLKSQLTISKDTSRNQVFLKLTSVVTADTATYYCARLTGTRYFDYWGQGTTLTVSS VL: DVQMTQSPSSLSASLGGKVTITCKASQDINKFIAWYQHKPGKGPRLLIHYTSTLQPGIPSKFSGSGSGRDYSFSISNLEPEDIATYYCLQYGNLWTFGGGTKLEIT	%	9.5
chimeric SBT-004 (antibody, V domains shown, VH fused to a human IgG1 Fc domain; also called chSBT-004) VH: EVQLQQSGPEVGRPGSSVKISCKASGYTFTDYIMHWVKQSPGQGLEWIGWVDPEYGSTDYAEKFKKKATLTADTSSNTAYIQLSSLTSEDTATYFCARDDGSYSPFDYWGQGVMVTVSS VL: DIQMTQSPPSLSASLGDKVTITCQASQNINKYIAWYQQKPGKAPRLLIRYTSTLESGTPSRFSGSGSGRDYSFSISNVESEDIASYYCLQYVNLLTFGAGTKLEIK	%	11.2
chimeric SBT-004b (antibody, human IgG1, V domains shown, Same heavy chain as chSBT-004 (human IgG1 Fc domain); also called chSBT-004b) VH: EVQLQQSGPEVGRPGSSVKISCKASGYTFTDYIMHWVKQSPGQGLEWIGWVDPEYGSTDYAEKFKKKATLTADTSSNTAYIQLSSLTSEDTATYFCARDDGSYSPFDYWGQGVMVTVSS VL: NIVMTQSPKSMSMSVGERVTLTCKASENVVTYVSWYQQKPEQSPKLLIYGASNRYTGVPDRFTGSGSATDFTLTISSVQAEDLADYHCGQGYSYPYTFGGGTKLEIK	%	9.2
